Test system: HL-60(TB)
Details: read-out: LC50; HL-60(TB) (Leukemia), 48 h
EXPERIMENTAL_READOUT: CC50 (µM)
Give your result in µM as a bare value.

Input line: Notebook entry, HL-60(TB) assay: CC50 of N=c1nc(N)c2ncn([C@@H]3O[C@H](COC(=O)c4ccccc4)[C@@H](OC(=O)c4ccccc4)[C@H]3OC(=O)c3ccccc3)c2c(N)n1 = ?
Output line: 83.7

###

Test system: T-47D
Assay: SRB anti-cancer assay, Breast Cancer
Assay type: cell-based, human
Conditions: T-47D (Breast Cancer), 48 h; read-out: LC50 (the source's name)
EXPERIMENTAL_READOUT: CC50

1. N=c1nc(N)c2ncn([C@@H]3O[C@H](CO)[C@@H](O)[C@H]3O)c2c(N)n1	> 100 µM

Input line: Suppose we examine the compound N=c1nc(N)c2ncn([C@@H]3O[C@H](COC(=O)c4ccccc4)[C@@H](OC(=O)c4ccccc4)[C@H]3OC(=O)c3ccccc3)c2c(N)n1 ; what CC50 value has been reported?
Output line: 48.8 µM

Input line: Suppose we examine the compound N=c1[nH]c(=O)c2ncn([C@@H]3O[C@H](CO)[C@@H](O)[C@H]3O)c2c(=O)[nH]1 ; what CC50 value has been reported?
Output line: > 100 µM

###

Test system: MCF7
Assay: SRB anti-cancer assay, Breast Cancer
Format: cell-based, human
Conditions: 48 h, read-out: LC50 (the source's name)
EXPERIMENTAL_READOUT: CC50 (µM)
Give your result in µM as a bare value.

1. N=c1nc(N)c2ncn([C@@H]3O[C@H](CO)[C@@H](O)[C@H]3O)c2c(N)n1	63.4

Field: next compound
Input line: Notebook entry, MCF7 assay: CC50 of N=c1nc(N)c2ncn([C@@H]3O[C@H](COC(=O)c4ccccc4)[C@@H](OC(=O)c4ccccc4)[C@H]3OC(=O)c3ccccc3)c2c(N)n1 = ?
Output line: 6.61

###

Tested on: SNB-19
Assay: SRB anti-cancer assay, CNS Cancer
Type: cell-based, human
Conditions: SNB-19 (CNS Cancer), 48 h; read-out: LC50 (the source's name)
EXPERIMENTAL_READOUT: CC50

1. N=c1nc(N)c2ncn([C@@H]3O[C@H](CO)[C@@H](O)[C@H]3O)c2c(N)n1	> 100 µM
2. N=c1nc(N)c2ncn([C@@H]3O[C@H](COC(=O)c4ccccc4)[C@@H](OC(=O)c4ccccc4)[C@H]3OC(=O)c3ccccc3)c2c(N)n1	68.2 µM

Field: next molecule
Input line: Notebook entry, SNB-19 assay: CC50 of N=c1[nH]c(=O)c2ncn([C@@H]3O[C@H](CO)[C@@H](O)[C@H]3O)c2c(=O)[nH]1 = ?
Output line: > 100 µM

###

System: HCC-2998
Test: SRB anti-cancer assay, Colon Cancer
Type: cell-based, human
Conditions: HCC-2998 (Colon Cancer), 48 h; read-out: LC50 (the source's name)
EXPERIMENTAL_READOUT: CC50

1) N=c1nc(N)c2ncn([C@@H]3O[C@H](COC(=O)c4ccccc4)[C@@H](OC(=O)c4ccccc4)[C@H]3OC(=O)c3ccccc3)c2c(N)n1	19.2 µM
2) N=c1nc(N)c2ncn([C@@H]3O[C@H](CO)[C@@H](O)[C@H]3O)c2c(N)n1 [Compound 14-2]	58 µM

Field: next compound
Input line: Suppose we examine the compound N=c1[nH]c(=O)c2ncn([C@@H]3O[C@H](CO)[C@@H](O)[C@H]3O)c2c(=O)[nH]1 [Compound 14-1] ; what CC50 value has been reported?
Output line: > 100 µM

###

Below, each of the molecules is paired with its reported CC50 value.
Tested on: 2.2.15 cells
Assay: Toxicity in confluent 2.2.15 cells (neutral red dye uptake)
Type: cell-based, human
Details: confluent 2.2.15 cells, 9 days, neutral red dye uptake; read-out: CC50
Give your result in µM as a bare value.

1. N=c1[nH]c(=O)c2ncn([C@@H]3O[C@H](CO)[C@@H](O)[C@H]3O)c2c(=O)[nH]1	2430

Field: next molecule
Input line: Suppose we examine the molecule N=c1nc(N)c2ncn([C@@H]3O[C@H](CO)[C@@H](O)[C@H]3O)c2c(N)n1 ; what CC50 value has been reported?
Output line: 501

###

System: SNB-75
Test: SRB anti-cancer assay, CNS Cancer
Format: cell-based, human
Conditions: SNB-75 (CNS Cancer), 48 h
EXPERIMENTAL_READOUT: LC50 (concentration killing 50% of cells)

See these solved cases before continuing.
1. N=c1nc(N)c2ncn([C@@H]3O[C@H](CO)[C@@H](O)[C@H]3O)c2c(N)n1 [Compound 14-2]	> 100 µM
2. N=c1nc(N)c2ncn([C@@H]3O[C@H](COC(=O)c4ccccc4)[C@@H](OC(=O)c4ccccc4)[C@H]3OC(=O)c3ccccc3)c2c(N)n1	50.4 µM

Field: next compound
Input line: Suppose we examine the compound N=c1[nH]c(=O)c2ncn([C@@H]3O[C@H](CO)[C@@H](O)[C@H]3O)c2c(=O)[nH]1 [Compound 14-1] ; what LC50 (concentration killing 50% of cells) value has been reported?
Output line: > 100 µM

###

Test system: OVCAR-3
Test: SRB anti-cancer assay, Ovarian Cancer
Type: cell-based, human
Conditions: OVCAR-3 (Ovarian Cancer), 48 h; read-out: LC50 (the source's name)
Below, each of the compounds is paired with its reported CC50 value.
Give your result in µM as a bare value.

1) N=c1nc(N)c2ncn([C@@H]3O[C@H](CO)[C@@H](O)[C@H]3O)c2c(N)n1 [Compound 14-2]	42.3

Field: next compound
Input line: Suppose we examine the compound N=c1nc(N)c2ncn([C@@H]3O[C@H](COC(=O)c4ccccc4)[C@@H](OC(=O)c4ccccc4)[C@H]3OC(=O)c3ccccc3)c2c(N)n1 ; what CC50 value has been reported?
Output line: 48.7

###

System: MDA-N
Assay: SRB anti-cancer assay, Breast Cancer
Type: cell-based, human
Details: 48 h, read-out: LC50 (the source's name)
EXPERIMENTAL_READOUT: CC50 (µM)
Give your result in µM as a bare value.

1. N=c1nc(N)c2ncn([C@@H]3O[C@H](CO)[C@@H](O)[C@H]3O)c2c(N)n1	54.5

Input line: Notebook entry, MDA-N assay: CC50 of N=c1nc(N)c2ncn([C@@H]3O[C@H](COC(=O)c4ccccc4)[C@@H](OC(=O)c4ccccc4)[C@H]3OC(=O)c3ccccc3)c2c(N)n1 = ?
Output line: 58.6

###

Tested on: MALME-3M
Test: SRB anti-cancer assay, Melanoma
Format: cell-based, human
Conditions: MALME-3M (Melanoma), 48 h
EXPERIMENTAL_READOUT: LC50 (µM)
Give your result in µM as a bare value.

1. N=c1nc(N)c2ncn([C@@H]3O[C@H](COC(=O)c4ccccc4)[C@@H](OC(=O)c4ccccc4)[C@H]3OC(=O)c3ccccc3)c2c(N)n1	33.8

Field: next compound
Input line: Notebook entry, MALME-3M assay: LC50 of N=c1nc(N)c2ncn([C@@H]3O[C@H](CO)[C@@H](O)[C@H]3O)c2c(N)n1 = ?
Output line: 25.3

###

System: HS 578T
Assay: SRB anti-cancer assay, Breast Cancer
Format: cell-based, human
Conditions: HS 578T (Breast Cancer), 48 h; read-out: LC50 (the source's name)
EXPERIMENTAL_READOUT: CC50

1. N=c1nc(N)c2ncn([C@@H]3O[C@H](CO)[C@@H](O)[C@H]3O)c2c(N)n1	> 100 µM

Field: next molecule
Input line: Notebook entry, HS 578T assay: CC50 of N=c1nc(N)c2ncn([C@@H]3O[C@H](COC(=O)c4ccccc4)[C@@H](OC(=O)c4ccccc4)[C@H]3OC(=O)c3ccccc3)c2c(N)n1 = ?
Output line: > 100 µM

###

System: IGROV1
Assay: SRB anti-cancer assay, Ovarian Cancer
Assay type: cell-based, human
Conditions: 48 h, read-out: LC50 (the source's name)
EXPERIMENTAL_READOUT: CC50 (µM)
Give your result in µM as a bare value.

Input line: Suppose we examine the compound N=c1nc(N)c2ncn([C@@H]3O[C@H](COC(=O)c4ccccc4)[C@@H](OC(=O)c4ccccc4)[C@H]3OC(=O)c3ccccc3)c2c(N)n1 ; what CC50 value has been reported?
Output line: 66.7

Input line: Suppose we examine the compound N=c1nc(N)c2ncn([C@@H]3O[C@H](CO)[C@@H](O)[C@H]3O)c2c(N)n1 [Compound 14-2] ; what CC50 value has been reported?
Output line: 66.3

###

Test system: M14
Experiment: SRB anti-cancer assay, Melanoma
Type: cell-based, human
Conditions: 48 h, read-out: LC50 (the source's name)
EXPERIMENTAL_READOUT: CC50 (µM)
Give your result in µM as a bare value.

1) N=c1nc(N)c2ncn([C@@H]3O[C@H](CO)[C@@H](O)[C@H]3O)c2c(N)n1	51.1

Field: next molecule
Input line: Suppose we examine the molecule N=c1nc(N)c2ncn([C@@H]3O[C@H](COC(=O)c4ccccc4)[C@@H](OC(=O)c4ccccc4)[C@H]3OC(=O)c3ccccc3)c2c(N)n1 ; what CC50 value has been reported?
Output line: 6.54
